- Test system: polyamine transport apparatus
- procedure.text: Competitive uptake determination: inhibition of [3H]spermidine transport into L1210 cells
- Type: cell-based, murine
- assay.setup: analogue inhibition of spermidine transport
Where a name gives a salt, the structure may show the parent alone.
Mark met only for Ki values smaller than 9 µM; exact matches and larger values are not met.

Below are worked cases with known answers.
INSERT INTO measurements (molecule, classification) VALUES
  ('CCCNCCCNCCCNCCC [DPNSPD, Trihydrochloride]', 'not met'),
  ('CCCNCCCNCCCN [MPNSPD, N^1-Propylnorspermidine Trihydrochloride]', 'not met');

Q: Item CCCNCCCCNCCCCN [MPHSPD, Trihydrochloride] : Ki beneath 9 µM, strictly?
A: met

Q: Say whether its Ki is strictly beneath 9 µM. Entry: CCCNCCCCNCCCNCCC [DPSPD, Trihydrochloride]
A: not met

Q: In plain terms, does CCNCCCNCCCCN [MESPD(N1), N^1-Ethylspermidine Trihydrochloride] come in under 9 µM for Ki?
A: met

###

- Tested on: L1210 cells
- procedure.text: Metabolic transformation of polyamine analogues by L1210 cells
- Format: in vitro ADME, murine
- assay.setup: 48 hours, 100 μM analogue
- Protocol: The cells were washed twice with cold RPMI-1640, and the pellet was treated with 0.6 N HClO4 (1 ml/10^7 cells). Polyamine contents of the perchloric acid extracts were quantitated by HPLC of the DANSYL derivatives [Bergeron et al, J. Med. Chem., Vol. 37, supra].
Structures can show the parent of a compound that is named as a salt.
assay.endpoint: N-Monodealkylation (result in words)

INSERT INTO measurements (compound, assayed_system, value) VALUES
  ('CNCCCNCCCNC [DMNSPD, Trihydrochloride]', 'L1210 cells', 'no N-demethylation'),
  ('CNCCCCNCCCCNC [DMHSPD, Trihydrochloride]', 'L1210 cells', 'no N-demethylation'),
  ('CNCCCCNCCCNC [DMSPD, Trihydrochloride]', 'L1210 cells', 'no N-demethylation');

###

- Test system: L1210 cells
- procedure.text: Polyamine pool analysis in L1210 cells
- Type: cell-based, murine
- assay.setup: intracellular amount; 100 μM, 48 hours
- Method: The following guidelines were adopted for studying the impact of the analogues on polyamine pools (Table 2). The measurements were made after a 48-hour exposure to the analogue, and two different concentrations of analogue were evaluated in each case. The cells were washed twice with cold RPMI-1640, and the pellet was treated with 0.6 N HClO4 (1 ml/10^7 cells). […]
Where a name gives a salt, the structure may show the parent alone.
Threshold check on Analogue: strictly below 4 nmol/10^6 cells is Yes; on or above 4 nmol/10^6 cells is No.

Completed entries (count: 6):
INSERT INTO assay_data (compound, classification) VALUES
  ('CCCNCCCNCCCN [MPNSPD, N^1-Propylnorspermidine Trihydrochloride]', 'Yes'),
  ('CCCNCCCCNCCCN [MPSPD(N8), N^8-Propylspermidine Trihydrochloride]', 'Yes'),
  ('CNCCCCNCCCCNC [DMHSPD, Trihydrochloride]', 'No'),
  ('NCCCCCNCCCCCN [5,5-Triamine, 1,7,13-Triazatridecane Trihydrochloride]', 'Yes'),
  ('CCCNCCCCNCCCNCCC [DPSPD, Trihydrochloride]', 'Yes'),
  ('CCNCCCCNCCCNCC [DESPD, Trihydrochloride]', 'No');

Q: Is the reported Analogue for CCCNCCCCCNCCCCCNCCC [DP(5,5), Trihydrochloride] strictly below 4 nmol/10^6 cells?
A: Yes

Q: Is it true that Analogue reported for CCCNCCCCNCCCCNCCC [DPHSPD, Trihydrochloride] is less than 4 nmol/10^6 cells?
A: Yes

Q: For CNCCCCNCCCNC [DMSPD, Trihydrochloride] , is the recorded Analogue below the cut-off of 4 nmol/10^6 cells?
A: No
